test_system: human TAS1R2-I595T/TAS1R3-WT (Homo sapiens, UniProt Q7RTX0+Q8TE23, I595T)
Construct: expressed in transfected cells; host or cells: HEK293T-Gα16gust44
Sequence (Q8TE23 20-839 I595T): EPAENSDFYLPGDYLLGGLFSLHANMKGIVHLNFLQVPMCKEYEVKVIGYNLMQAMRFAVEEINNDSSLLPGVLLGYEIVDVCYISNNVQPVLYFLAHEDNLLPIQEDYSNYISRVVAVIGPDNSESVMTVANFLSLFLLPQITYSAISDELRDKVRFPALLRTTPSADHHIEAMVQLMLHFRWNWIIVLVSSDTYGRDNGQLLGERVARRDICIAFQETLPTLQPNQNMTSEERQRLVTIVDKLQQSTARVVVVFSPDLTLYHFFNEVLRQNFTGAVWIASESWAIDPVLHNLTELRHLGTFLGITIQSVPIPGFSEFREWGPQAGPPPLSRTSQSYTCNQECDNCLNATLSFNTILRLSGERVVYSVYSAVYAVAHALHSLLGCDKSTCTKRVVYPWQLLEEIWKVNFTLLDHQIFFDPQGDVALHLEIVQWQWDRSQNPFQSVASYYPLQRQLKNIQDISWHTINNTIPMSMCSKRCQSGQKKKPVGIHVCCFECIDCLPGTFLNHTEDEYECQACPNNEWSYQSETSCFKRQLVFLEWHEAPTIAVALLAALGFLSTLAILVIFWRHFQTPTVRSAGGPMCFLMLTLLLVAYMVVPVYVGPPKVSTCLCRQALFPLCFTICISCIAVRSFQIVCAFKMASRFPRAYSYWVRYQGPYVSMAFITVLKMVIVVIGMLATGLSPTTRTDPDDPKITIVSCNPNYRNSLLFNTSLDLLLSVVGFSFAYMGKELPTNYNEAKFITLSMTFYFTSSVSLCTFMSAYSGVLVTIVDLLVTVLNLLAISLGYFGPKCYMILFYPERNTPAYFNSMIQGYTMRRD
Sequence (Q7RTX0 21-852): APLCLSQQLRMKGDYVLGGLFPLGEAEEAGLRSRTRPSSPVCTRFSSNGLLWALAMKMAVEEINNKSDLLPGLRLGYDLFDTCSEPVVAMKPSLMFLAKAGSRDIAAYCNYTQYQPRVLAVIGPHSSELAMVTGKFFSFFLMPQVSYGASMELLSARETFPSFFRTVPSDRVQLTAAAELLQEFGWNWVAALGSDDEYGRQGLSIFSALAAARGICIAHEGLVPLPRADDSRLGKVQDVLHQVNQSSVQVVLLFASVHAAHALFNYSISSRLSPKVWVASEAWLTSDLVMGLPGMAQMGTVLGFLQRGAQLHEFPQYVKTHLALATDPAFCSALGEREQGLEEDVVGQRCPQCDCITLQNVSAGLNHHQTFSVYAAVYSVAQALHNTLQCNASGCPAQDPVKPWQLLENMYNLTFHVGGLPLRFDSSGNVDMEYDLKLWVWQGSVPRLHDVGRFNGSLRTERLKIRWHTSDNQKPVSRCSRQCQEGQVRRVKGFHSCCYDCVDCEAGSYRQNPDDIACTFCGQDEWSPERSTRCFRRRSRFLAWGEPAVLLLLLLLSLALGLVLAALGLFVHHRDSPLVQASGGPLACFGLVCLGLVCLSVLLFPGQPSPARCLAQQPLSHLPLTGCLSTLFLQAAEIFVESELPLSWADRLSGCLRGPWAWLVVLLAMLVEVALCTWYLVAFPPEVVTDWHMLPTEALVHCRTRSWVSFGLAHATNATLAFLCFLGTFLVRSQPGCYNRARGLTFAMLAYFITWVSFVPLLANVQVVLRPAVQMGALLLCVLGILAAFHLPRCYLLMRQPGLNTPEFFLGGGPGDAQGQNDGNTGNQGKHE
assay_overview: Calcium mobilisation assay, TAS1R2 variant I595T with TAS1R3-WT
Assay type: cell-based
condition_info: maximal signal amplitude, "-": no activation
quantity_kind: Max ΔF/F0

Previously resolved entries follow.
compound	Max ΔF/F0
CC1=CC(=O)NS(=O)(=O)O1 [Acesulfame K, acesulfame K]	0.02
C[C@H](CC[C@@H](O[C@@H]1O[C@H](CO[C@@H]2O[C@H](CO)[C@@H](O)[C@H](O)[C@H]2O)[C@@H](O)[C@H](O)[C@H]1O[C@@H]1O[C@H](CO)[C@@H](O)[C@H](O)[C@H]1O)C(C)(C)O)[C@H]1CC[C@@]2(C)[C@@H]3CC=C4[C@@H](CC[C@H](O[C@@H]5O[C@H](CO[C@@H]6O[C@H](CO)[C@@H](O)[C@H](O)[C@H]6O)[C@@H](O)[C@H](O)[C@H]5O)C4(C)C)[C@]3(C)[C@H](O)C[C@]12C [Mogroside V, mogroside V]	0.27
C=C1C[C@@]23CC[C@H]4[C@@](C)(CCC[C@@]4(C)C(=O)O[C@@H]4O[C@H](CO)[C@@H](O)[C@H](O[C@@H]5O[C@H](CO)[C@@H](O)[C@H](O)[C@H]5O)[C@H]4O[C@@H]4O[C@H](CO)[C@@H](O)[C@H](O)[C@H]4O)[C@@H]2CC[C@]1(O[C@@H]1O[C@H](CO)[C@@H](O)[C@H](O[C@@H]2O[C@H](CO)[C@@H](O)[C@H](O)[C@H]2O)[C@H]1O[C@@H]1O[C@H](CO)[C@@H](O)[C@H](O)[C@H]1O)C3 [Rebaudioside M, rebaudioside M]	0.23
OC[C@H]1O[C@H](O[C@]2(CCl)O[C@H](CCl)[C@@H](O)[C@@H]2O)[C@H](O)[C@@H](O)[C@H]1Cl [Sucralose]	0.08

a. COc1ccc(CCC(=O)c2c(O)cc(O[C@@H]3O[C@H](CO)[C@@H](O)[C@H](O)[C@H]3O[C@@H]3O[C@@H](C)[C@H](O)[C@@H](O)[C@H]3O)cc2O)cc1O [NHDC, neohesperidin dihydrochalcone]
b. C=C(C)[C@@H]1CC=C(/C=N/O)CC1 [Perillartine, perillartine]
Challenge: Could you point out whether the larger Max ΔF/F0 belongs to a or to b ? Please reply using the label of the selected record.
Response given: b
(b: 0.51, a: 0.09)

====

pEC50 reference
test_system: human TAS1R2-I191V/TAS1R3-WT (Homo sapiens, UniProt Q7RTX0+Q8TE23, I191V)
Sequence (Q8TE23 20-839 I191V): as the sequence (Q8TE23 20-839 I595T) above, with I172V, T576I counted along it
Sequence (Q7RTX0 21-852): as the sequence (Q7RTX0 21-852) above
assay_overview: Calcium mobilisation assay, TAS1R2 variant I191V with TAS1R3-WT
Quick note: pEC50 values are minus log10 of concentrations in mol/L.

Previously resolved entries follow.
molecule	pEC50
C[C@H](CC[C@@H](O[C@@H]1O[C@H](CO[C@@H]2O[C@H](CO)[C@@H](O)[C@H](O)[C@H]2O)[C@@H](O)[C@H](O)[C@H]1O[C@@H]1O[C@H](CO)[C@@H](O)[C@H](O)[C@H]1O)C(C)(C)O)[C@H]1CC[C@@]2(C)[C@@H]3CC=C4[C@@H](CC[C@H](O[C@@H]5O[C@H](CO[C@@H]6O[C@H](CO)[C@@H](O)[C@H](O)[C@H]6O)[C@@H](O)[C@H](O)[C@H]5O)C4(C)C)[C@]3(C)[C@H](O)C[C@]12C [Mogroside V, mogroside V]	4.72
C=C1C[C@@]23CC[C@H]4[C@@](C)(CCC[C@@]4(C)C(=O)O[C@@H]4O[C@H](CO)[C@@H](O)[C@H](O[C@@H]5O[C@H](CO)[C@@H](O)[C@H](O)[C@H]5O)[C@H]4O[C@@H]4O[C@H](CO)[C@@H](O)[C@H](O)[C@H]4O)[C@@H]2CC[C@]1(O[C@@H]1O[C@H](CO)[C@@H](O)[C@H](O[C@@H]2O[C@H](CO)[C@@H](O)[C@H](O)[C@H]2O)[C@H]1O[C@@H]1O[C@H](CO)[C@@H](O)[C@H](O)[C@H]1O)C3 [Rebaudioside M, rebaudioside M]	4.68

Next item in the queue.
For this molecule ( OC[C@H]1O[C@H](O[C@]2(CCl)O[C@H](CCl)[C@@H](O)[C@@H]2O)[C@H](O)[C@@H](O)[C@H]1Cl [Sucralose] ), measured pEC50 is 4.06
